The origin of these recorded values is patent US20130029928A1.

assay: Phase I study CXR1002-001: plasma pharmacokinetics (LC-MS/MS); type: in vivo, human; settings: human, plasma, oral, 950 mg, Patient 031, 950 mg, person, plasma, 2 hr; read-out: Concentration
metric name: concentration at 2 h (µM)

- compound structure: "O=C(O)C(F)(F)C(F)(F)C(F)(F)C(F)(F)C(F)(F)C(F)(F)C(F)(F)F"
  observed measurement: 267

###

Experiment: Phase I study CXR1002-001: plasma pharmacokinetics (LC-MS/MS)
Type: in vivo, human
Conditions: human, plasma, oral, 300 mg, Patient 011 Dose 300 mg; 4 hr; read-out: Concentration
Description: PK samples, PD (fasting) samples, blood glucose, and blood triglyceride samples, were taken over a 6-week period. Dose limiting toxicity (DLT) will be based on the toxicity assessments over the first 3-week period of the repeat dosing schedule. […]

- compound structure: "O=C(O)C(F)(F)C(F)(F)C(F)(F)C(F)(F)C(F)(F)C(F)(F)C(F)(F)F"
  concentration at 4 h: "112 µM"

###

experiment: Phase I study CXR1002-001: plasma pharmacokinetics (LC-MS/MS); format: in vivo, human; details: human, plasma, oral, 600 mg, Patient 022, 600 mg, person, plasma, 172 hr; read-out: Concentration

- compound structure: "O=C(O)C(F)(F)C(F)(F)C(F)(F)C(F)(F)C(F)(F)C(F)(F)C(F)(F)F"
  concentration at 172 h / µM: 276

###

assay: Phase I study CXR1002-001: plasma pharmacokinetics (LC-MS/MS); format: in vivo, human; settings: human, plasma, oral, 750 mg, Patient 027, 750 mg, person, plasma, 339 hr; read-out: Concentration

- compound structure: "O=C(O)C(F)(F)C(F)(F)C(F)(F)C(F)(F)C(F)(F)C(F)(F)C(F)(F)F"
  unit symbol: "µM"
  concentration at 339 h: 412

###

test: Phase I study CXR1002-001: plasma pharmacokinetics (LC-MS/MS); assay type: in vivo, human; conditions: human, plasma, oral, 300 mg, Patient 013 Dose 300 mg; 2 hr; read-out: Concentration

- compound structure: "O=C(O)C(F)(F)C(F)(F)C(F)(F)C(F)(F)C(F)(F)C(F)(F)C(F)(F)F"
  unit symbol: "µM"
  concentration at 2 h: 82.7

###

test: Phase I study CXR1002-001: plasma pharmacokinetics (LC-MS/MS); format: in vivo, human; settings: human, plasma, oral, 1200 mg, Patient 033, 1200 mg, person, plasma, 676 hr; read-out: Concentration

- compound structure: "O=C(O)C(F)(F)C(F)(F)C(F)(F)C(F)(F)C(F)(F)C(F)(F)C(F)(F)F"
  unit symbol: "µM"
  concentration at 676 h: 1100

###

assay: Phase I study CXR1002-001: plasma pharmacokinetics (LC-MS/MS); type: in vivo, human; conditions: human, plasma, oral, 200 mg, Patient 009 Dose 200 mg; 4 hr; read-out: Concentration

- compound structure: "O=C(O)C(F)(F)C(F)(F)C(F)(F)C(F)(F)C(F)(F)C(F)(F)C(F)(F)F"
  concentration at 4 h (µM): 71.1

###

experiment: Phase I study CXR1002-001: plasma pharmacokinetics (LC-MS/MS); format: in vivo, human; conditions: human, plasma, oral, 600 mg, Patient 024, 600 mg, person, plasma, 506 hr; read-out: Concentration

- molecule: "O=C(O)C(F)(F)C(F)(F)C(F)(F)C(F)(F)C(F)(F)C(F)(F)C(F)(F)F [CXR1002]"
  unit symbol: "µM"
  concentration at 506 h: 642
